Where do these numbers come from? They come from ChEMBL document CHEMBL5241104.

Experiment: Toxicity in Swiss albino mouse assessed as lethality at 30 mg/kg,ip
Assay type: organism-based
Conditions: in vivo, read-out: Activity
As shown below, each of these compounds has a reported mortality value.
Provide the reading as a plain figure in %.

If you can, please state the reported mortality value of O=C1Nc2ccccc2C12Nc1ccccc1-c1nc(=O)c(-c3ccccc3)nn12 (stereo not drawn) . 30

If you can, please state the reported mortality value of COc1ccc(NC(=O)CN2C(=O)C3(Nc4ccccc4-c4nc(=O)c(C)nn43)c3ccccc32)cc1 (stereo not drawn) . 20

If you can, please state the reported mortality value of O=C1Nc2ccc(Br)cc2C12Nc1ccccc1-c1nc(=O)c(-c3ccccc3)nn12 (stereo not drawn) . 30
